Assay: Ex-vivo simulated dialysis treatment (CRRT mimic) of bovine plasma containing creatinine
Type: in vitro ADME
Details: M150 AN69 membrane; FIG. 5; the values are: percent change venous vs arterial
measured parameter: Change in creatinine concentration, venous vs. arterial side, mean over timepoints (%)

>>> df
   chemical_structure  value_measured
0      CN1CC(=O)NC1=N           -16.8

---

Assay: Ex-vivo simulated dialysis treatment (CRRT mimic) of bovine plasma containing creatinine
Format: in vitro ADME
Details: HF1400 membrane; FIG. 7; the values are: percent change venous vs arterial
measured parameter: Change in creatinine concentration, venous vs. arterial side, mean over timepoints

>>> df
   chemical_structure  value_measured
0      CN1CC(=O)NC1=N          -25.4%

---

Experiment: Ex-vivo simulated dialysis treatment (CRRT mimic) of bovine plasma containing creatinine
Format: in vitro ADME
Settings: bovine, HF1400 membrane; prior to starting ex-vivo dialysis; read-out: Starting creatinine concentration at time zero
measured parameter: C0 at 0 min

                      molecule  value_measured
0  CN1CC(=O)NC1=N [creatinine]      8580 ng/mL
